Answer each item with its documented relative solubility at 20 uM.
# experimental-parameters: 20.0 µM

Fill in: relative solubility at 20 uM of "N#Cc1ccc(CNC(=O)Cc2c[nH]c3ncccc23)cc1" is ___
1

Thanks! And C=CC(=O)N(c1ccc(N(C)C)c(C)c1)C(C(=O)Nc1ccc(OC)cc1C)c1cccnc1 (stereo not given) ?
0.87

Thanks! And "CS(=O)(=O)Nc1cccc(C(=O)OCC(=O)Nc2cccc(N3CCCC3=O)c2)c1" ?
0.98

Thanks! And CC1CC(C)CN(C(=O)c2ccccc2NC(=O)NCc2ccoc2)C1 (stereo not given) ?
1

Thanks! And "O=C(c1cc(=O)[nH]c2ccc(F)cc12)N1CCN(S(=O)(=O)c2ccc(Cl)cc2)CC1" ?
0.98

* * *

# system-tested: SARS-CoV-2 Main Protease (SARS-CoV-2) (UniProt P0DTD1)
# experimental-parameters: 20.0 µM
Answer each item with its documented inhibition.
Report the figure in % without appending any unit label.

Fill in: inhibition of C=CC(=O)N(c1ccc(C(C)OC)cc1)C(C(=O)Nc1ccccc1Br)c1cccnc1 (stereo not given) is ___
0

Thanks! And "O=C(c1cc(=O)[nH]c2ccccc12)N1CCN(c2ccccc2)CC1" ?
66.6

Thanks! And C=CC(=O)N(c1ccc2ncsc2c1)C(C(=O)Nc1ccc(Cl)cc1)c1cccnc1 (stereo not given) ?
2.57

Thanks! And C=CC(=O)N(c1ccc(N(C)C)c(C)c1)C(C(=O)Nc1ccc(OC)cc1)c1cccnc1 (stereo not given) ?
0

Thanks! And O=C(Nc1cccc(C(=O)N2CCSCC2)c1)C(F)Cl (stereo not given) ?
0

Thanks! And O=C(CCn1ccnn1)NC(CN1CCOCC1)c1ccccc1 (stereo not given) ?
0

Thanks! And "NS(=O)(=O)c1ccc(N2CCC(Nc3ccc(F)cc3)CC2)cc1" ?
3.79

Thanks! And "Cc1ccncc1NC(=O)CC(C)(C)NC(=O)c1cccc2[nH]ccc12" ?
0

Thanks! And C=CC(=O)N(C1CCCC(C(C)C)CC1)C(C(=O)NC(C)(C)C)c1cccnc1 (stereo not given) ?
0

Thanks! And C=CC(=O)N(c1ccc(C(C)(C)C)cc1)C(C(=O)NC(C)C)c1cccnc1 (stereo not given) ?
0

* * *

# experimental-parameters: 100.0 µM
measured-attribute: relative solubility at 100 uM
// return a plain number; no unit text

Fill in: relative solubility at 100 uM of "O=C(Nc1cccnc1)c1cc(Cl)ccc1O" is ___
0.89

Thanks! And CCOc1ccccc1OC1CCN(C(=O)c2cc(=O)[nH]c3cc(F)ccc23)C1 (stereo unspecified) ?
0.99

Thanks! And "Cc1ccc(Oc2cccc(NC(=O)NCc3cnnn3C)c2)c(C)c1" ?
0.75

Thanks! And "CCn1c(=O)n(CC(=O)NCc2cnccn2)c2ccccc21" ?
1

Thanks! And CCO[C@@H]1C[C@H]1C(=O)Nc1cnccc1C (stereo in doubt) ?
1

Thanks! And "N#Cc1cc(Cl)cc(NC(=O)Nc2cccnc2)c1" ?
0.88

Thanks! And CC1(C)CC(C(=O)Nc2nncn2C2CC2)c2ccccc2O1 (stereo unspecified) ?
0.98

Thanks! And O=C(Nc1cnccc1CO)C1CCOc2ccc(Cl)cc21 (stereo unspecified) ?
0.93

Thanks! And CC(C(=O)Nc1cccc(OC2CC(=O)N2)c1)c1cnccn1 (stereo unspecified) ?
1

Thanks! And "COc1ccc(-c2cccc(S(=O)(=O)N3CCN(C(C)=O)CC3)c2)cc1" ?
0.93

Thanks! And C=CC(=O)N(c1ccc(C(C)C)nc1)C(C(=O)NC(C)(C)C)c1cccnc1 (stereo unspecified) ?
0.99
